Recorded measurements of median fluorescence, one per entry
Target: T1, FZD6 cysteine-rich domain (CRD), MYC-tagged and GPI-anchored on CHO cells (human, UniProt O60353 20-146, GPI anchor)
T1 construct: also called FZD6 CRD; CHO-myc-FZDGPI; not shown: MYC tag and GPI anchor signal
T1 sequence: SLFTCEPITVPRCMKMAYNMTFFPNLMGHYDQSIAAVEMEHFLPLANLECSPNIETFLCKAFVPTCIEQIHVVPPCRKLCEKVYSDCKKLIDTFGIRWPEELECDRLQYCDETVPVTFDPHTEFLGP
Test: flow cytometry, CHO-CRD cells;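 further: flow cytometry of Fab binding to CHO cells overexpressing a Frizzled CRD, with binding defined as median fluorescence over twice that of CHO cells lacking any Frizzled CRD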
# answer = number (no unit)

Here is how some binders turned out for median fluorescence.
binder	median fluorescence
Fab-2924 (Fab, V domains shown, Fab; also called Fv-2924) VH: EVQLVESGGGLVQPGGSLRLSCAASGFNISYSYIHWVRQAPGKGLEWVASIYSYYSSTSYADSVKGRFTISADTSKNTAYLQMNSLRAEDTAVYYCARGALDYWGQGTLVTVSS VL: DIQMTQSPSSLSASVGDRVTITCRASQSVSSAVAWYQQKPGKAPKLLIYSASSLYSGVPSRFSGSRSGTDFTLTISSLQPEDFATYYCQQWYSGHSLITFGQGTKVEIK	4.49
Fab-2901 (Fab, V domains shown, Fab; also called Fv-2901) VH: EVQLVESGGGLVQPGGSLRLSCAASGFNISYSYMHWVRQAPGKGLEWVASIYSYSSYTYYADSVKGRFTISADTSKNTAYLQMNSLRAEDTAVYYCARSWYYWSPSSGMDYWGQGTLVTVSS VL: DIQMTQSPSSLSASVGDRVTITCRASQSVSSAVAWYQQKPGKAPKLLIYSASSLYSGVPSRFSGSRSGTDFTLTISSLQPEDFATYYCQQGGFLITFGQGTKVEIK	3.62

API: the following record is the query input.
Quick one: median fluorescence of Fab-2922 (Fab, V domains shown, Fab; also called Fv-2922) VH: EVQLVESGGGLVQPGGSLRLSCAASGFNIYSSYMHWVRQAPGKGLEWVASISPYSGYTSYADSVKGRFTISADTSKNTAYLQMNSLRAEDTAVYYCARTVRGSKKPYFSGWAMDYWGQGTLVTVSS VL: DIQMTQSPSSLSASVGDRVTITCRASQSVSSAVAWYQQKPGKAPKLLIYSASSLYSGVPSRFSGSRSGTDFTLTISSLQPEDFATYYCQQSFVYPYLITFGQGTKVEIK ?
3.68
